Each recorded value in this set is attributed to patent US8765972B2.

- measurement.target: PARP-2 (Homo sapiens (Human), UniProt Q9UGN5)
- Sequence (Q9UGN5 whole entry): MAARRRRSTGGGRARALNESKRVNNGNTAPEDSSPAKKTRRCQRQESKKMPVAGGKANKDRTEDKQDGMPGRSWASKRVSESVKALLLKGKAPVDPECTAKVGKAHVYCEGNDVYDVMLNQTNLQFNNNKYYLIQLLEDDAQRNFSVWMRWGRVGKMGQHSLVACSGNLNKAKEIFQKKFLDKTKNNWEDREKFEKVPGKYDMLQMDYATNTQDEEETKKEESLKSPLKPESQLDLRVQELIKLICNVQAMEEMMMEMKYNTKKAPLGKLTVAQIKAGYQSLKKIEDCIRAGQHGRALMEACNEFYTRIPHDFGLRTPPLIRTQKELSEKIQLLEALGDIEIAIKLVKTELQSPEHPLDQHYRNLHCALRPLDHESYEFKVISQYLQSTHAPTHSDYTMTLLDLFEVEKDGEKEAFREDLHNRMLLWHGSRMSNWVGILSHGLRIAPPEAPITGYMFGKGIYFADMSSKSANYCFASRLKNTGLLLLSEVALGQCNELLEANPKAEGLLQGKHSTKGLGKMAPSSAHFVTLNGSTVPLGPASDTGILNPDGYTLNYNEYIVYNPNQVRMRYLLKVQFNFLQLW
- condition.details: read-out: PARP-2 (DC50); probe compound P1
measurement.name: DC50

CC1c2cccc(C(N)=O)c2C(=O)N1C1CCN(Cc2ccc[nH]2)CC1 (stereo not drawn) :: > 10 µM

Please report the measured DC50 for CC1c2cccc(C(N)=O)c2C(=O)N1C1CCN(Cc2ccc3[nH]ccc3c2)CC1 (stereo not drawn)
> 10 µM

Please supply the value of reported DC50 for the item C[C@@H]1c2cccc(C(N)=O)c2C(=O)N1C1CCN(C2CCCCC2)CC1
> 10 µM

====

Catalogue of DC50 readings, one per entry.
- measurement.target: PARP-3 (Homo sapiens (Human), UniProt Q9Y6F1)
- Sequence (Q9Y6F1 whole entry): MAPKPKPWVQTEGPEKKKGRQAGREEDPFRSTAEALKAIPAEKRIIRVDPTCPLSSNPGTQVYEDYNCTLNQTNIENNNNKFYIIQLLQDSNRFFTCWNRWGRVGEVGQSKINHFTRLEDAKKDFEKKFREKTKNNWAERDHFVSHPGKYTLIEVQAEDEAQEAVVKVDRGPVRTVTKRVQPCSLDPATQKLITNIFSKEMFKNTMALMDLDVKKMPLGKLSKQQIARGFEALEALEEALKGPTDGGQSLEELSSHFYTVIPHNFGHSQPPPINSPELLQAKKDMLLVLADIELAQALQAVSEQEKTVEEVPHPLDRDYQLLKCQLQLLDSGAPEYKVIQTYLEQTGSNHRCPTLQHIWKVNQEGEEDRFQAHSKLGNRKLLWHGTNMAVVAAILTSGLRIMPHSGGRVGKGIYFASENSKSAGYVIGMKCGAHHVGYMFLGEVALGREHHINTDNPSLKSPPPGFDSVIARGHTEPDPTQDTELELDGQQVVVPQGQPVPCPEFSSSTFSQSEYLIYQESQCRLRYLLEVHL
- condition.details: read-out: PARP-3 (DC50); probe compound P1

CC1c2cccc(C(N)=O)c2C(=O)N1c1ccc(N2CCCCC2)cc1 (stereo not shown) :: > 10 µM
CC1c2cccc(C(N)=O)c2C(=O)N1C1CCN(CC2CC=CCC2)CC1 (stereo not shown) :: > 10 µM
CC1(C)c2cc(F)cc(C(N)=O)c2C(=O)N1C1CCN(C2CCCCC2)CC1 :: > 10 µM
CC1c2cccc(C(N)=O)c2C(=O)N1C1CCN(Cc2ccccn2)CC1 (stereo not shown) :: > 10 µM
CC1c2cccc(C(N)=O)c2C(=O)N1C1CCN(Cc2cn(C(C)C)c3ccccc23)CC1 (stereo not shown) :: 3.1 µM
CC1c2cccc(C(N)=O)c2C(=O)N1c1ccc(CN2CCCCC2)cc1 (stereo not shown) :: > 10 µM
CC1c2cccc(C(N)=O)c2C(=O)N1C1CCN(Cc2cccs2)CC1 (stereo not shown) :: 3.86 µM
CC1c2cccc(C(N)=O)c2C(=O)N1C1CCN(Cc2ccc[nH]2)CC1 (stereo not shown) :: 3.04 µM
CC1c2cccc(C(N)=O)c2C(=O)N1C1CCN(Cc2ncc[nH]2)CC1 (stereo not shown) :: 2.83 µM
CC1c2cccc(C(N)=O)c2C(=O)N1C1CCN(Cc2ccco2)CC1 (stereo not shown) :: > 10 µM

Specify reported DC50 for the molecule shown: C[C@H]1c2cccc(C(N)=O)c2C(=O)N1C1CCN(C2CCCCC2)CC1
> 10 µM

Please report DC50 for the following molecule: CC1c2cccc(C(N)=O)c2C(=O)N1C1CCN(CC2CCCCC2)CC1 (stereo not shown)
> 10 µM

Give me measured DC50, please, for this molecule: CC1c2cccc(C(N)=O)c2C(=O)N1C1CCN(C2CCCC2)CC1 (stereo not shown)
> 10 µM
